All figures here come from ChEMBL document CHEMBL4011590.

Record form. Attribute: MIC99. Fill in for each entry.
# System: Mycobacterium kansasii
# TEST: Antimycobacterial activity against Mycobacterium kansasii CNCTC My 235/80 after 7 days by micromethod
# Type: functional
# CONDITION CONTEXT: CNCTC My 235/80, 168 h
The reply should contain only the number, in µM.

Give its MIC99 value. Item: `COc1ccc(-n2nnnc2SCn2nnc(-c3cc([N+](=O)[O-])cc([N+](=O)[O-])c3)n2)cc1`
0.5

Also check `CCCCCCCCCCCCCCCCn1nnnc1SCn1nnc(-c2cc([N+](=O)[O-])cc([N+](=O)[O-])c2)n1`
16

Also check `COc1cccc(-n2nnnc2SCn2nnc(-c3cc([N+](=O)[O-])cc([N+](=O)[O-])c3)n2)c1`
1

Also check `O=[N+]([O-])c1cc(-c2nnn(Cc3ccccc3)n2)cc([N+](=O)[O-])c1`
1

Also check `O=[N+]([O-])c1cc(-c2nnn(Cc3cccc(Cl)c3)n2)cc([N+](=O)[O-])c1`
1

Also check `O=[N+]([O-])c1cc(-c2nnn(CSc3nnnn3-c3ccc(Br)cc3)n2)cc([N+](=O)[O-])c1`
0.125

Also check `O=[N+]([O-])c1cc(-c2nnn(CCSc3nnnn3-c3ccc(Br)cc3)n2)cc([N+](=O)[O-])c1`
0.5

Also check `CCCn1nnc(-c2cc([N+](=O)[O-])cc([N+](=O)[O-])c2)n1`
16

Also check `CCCCCCCCCCCCn1nnc(-c2cc([N+](=O)[O-])cc([N+](=O)[O-])c2)n1`
4

Also check `O=[N+]([O-])c1cc(-c2nnn(CCCSc3nnnn3-c3ccc(Br)cc3)n2)cc([N+](=O)[O-])c1`
0.5

Also check `O=[N+]([O-])c1cc(-c2nnn(CSc3nnnn3C3CCCCC3)n2)cc([N+](=O)[O-])c1`
0.06

Also check `O=[N+]([O-])c1cc(Sc2nnnn2C2CCCCC2)cc([N+](=O)[O-])c1`
1

Also check `O=[N+]([O-])c1cc(-c2nnnn2Cc2ccc(Cl)cc2)cc([N+](=O)[O-])c1`
8

Also check `O=[N+]([O-])c1cc(-c2nnn(CSc3nnnn3Cc3ccccc3)n2)cc([N+](=O)[O-])c1`
2

Also check `O=[N+]([O-])c1cc(Sc2nnnn2-c2ccccc2)cc([N+](=O)[O-])c1`
8

Also check `O=[N+]([O-])c1cc(-c2nnn(CCCSc3nnnn3-c3ccc(Cl)c(Cl)c3)n2)cc([N+](=O)[O-])c1`
0.25

Also check `O=[N+]([O-])c1cc(-c2nnn(Cc3cc(F)cc(F)c3)n2)cc([N+](=O)[O-])c1`
1

Also check `O=[N+]([O-])c1cc(-c2nnnn2Cc2ccccc2)cc([N+](=O)[O-])c1`
8

----------
Record form. Attribute: MIC. Fill in for each entry.
# Tested on: Candida albicans
# TEST: Antifungal activity against Candida albicans ATCC 44859 after 48 hrs by broth microdilution method
# Type: functional
# CONDITION CONTEXT: ATCC 44859, 48 h

Entry `COc1cccc(-n2nnnc2SCn2nnc(-c3cc([N+](=O)[O-])cc([N+](=O)[O-])c3)n2)c1` , system Candida albicans: what MIC was measured?
> 500 µM

Also check `O=[N+]([O-])c1cc(-c2nnn(Cc3cccc(Cl)c3)n2)cc([N+](=O)[O-])c1`
> 500 µM

Also check `Cc1ccc(Cn2nnnc2-c2cc([N+](=O)[O-])cc([N+](=O)[O-])c2)cc1`
> 500 µM

Also check `O=[N+]([O-])c1cc(-c2nnn(Cc3cccc(Br)c3)n2)cc([N+](=O)[O-])c1`
> 500 µM

Also check `COc1ccc(Cn2nnnc2-c2cc([N+](=O)[O-])cc([N+](=O)[O-])c2)cc1`
250 µM
